# TARGET UNDER TEST: WDR5 (Homo sapiens)
# Construct: N-terminal His-tagged WDR5 protein (residues 24-334), named WDR5Δ23; made in house; host or cells: E. coli Rosetta 2 (DE3)
# TEST SUMMARY: fluorescence polarization (FP) based competitive binding assay to WDR5 protein
# CONDITION: read-out: Binding Affinity to WDR5 IC50 ± SD
Starred links: 1 amine or outer side, 2 acyl side, 3 side chain; linkers in the order of their positions; H or OH if unused. Positions of bridges follow the written chain, without caps; N, C: chain ends. Non-standard residues stand in square brackets, D forms with d. Residues, ends and D or L forms follow the SMILES beside them. *: point of attachment. dαMeDab = C[C@](CCN[*:3])(N[*:1])C(=O)[*:2]; Arg(Me) = CNC(=N)NCCC[C@H](N)C(=O)O; d(αMeOrn) = C[C@@](N)(CCCN)C(=O)O; dPhg = N[C@@H](C(=O)O)c1ccccc1; dOrn = NCCC[C@@H](N)C(=O)O; Isobutyryl = CC(C)C(=O)*; Abu = CC[C@H](N)C(=O)O
RECORDED METRIC: pIC50
# pIC50 = -log10(concentration in molar units)

Prompt line: Entry CC[C@@H]1NC(=O)[C@H](CCCNC(=N)N)NC(=O)[C@H](NC(=O)C(C)C)CCCNC(=O)[C@@H](c2ccccc2)NC1=O [Cpd. No. 72] (Isobutyryl-[dOrn]R[Abu][dPhg]; lactam 1-C) : reported pIC50 = ?
Response line: 6.79

Prompt line: Repeat for the following compound: CC[C@@H]1NC(=O)[C@H](CCCNC(=N)N)NC(=O)[C@H](NC(=O)C(C)C)CCCCNC(=O)[C@@H](c2ccccc2)NC1=O [Cpd. No. 73] (Isobutyryl-[dK]R[Abu][dPhg]; lactam 1-C)
Response line: 6.53

Prompt line: Repeat for the following compound: CC[C@@H]1NC(=O)[C@H](CCCNC(=N)N)NC(=O)[C@](C)(NC(=O)C(C)C)CCCNC(=O)[C@@H](c2ccccc2)NC1=O [Cpd. No. 74] (Isobutyryl-[d(αMeOrn)]R[Abu][dPhg]; lactam 1-C)
Response line: 9.01

Prompt line: Repeat for the following compound: CC[C@@H]1NC(=O)[C@H](CCCNC(=N)NC)NC(=O)[C@](C)(NC(=O)C(C)C)CCNC(=O)[C@@H](c2ccccc2)NC1=O [Cpd. No. 5] (Isobutyryl-[dαMeDab][Arg(Me)][Abu][dPhg]; lactam 1-C)
Response line: 9.05

###

# TARGET UNDER TEST: WDR5 (Homo sapiens, UniProt P61964)
# Construct: N-terminal His-tagged WDR5 protein (residues 24-334), named WDR5Δ23; made in house; host or cells: E. coli Rosetta 2 (DE3)
# TEST SUMMARY: fluorescence polarization (FP) based competitive binding assay to WDR5 protein
Starred links: 1 amine or outer side, 2 acyl side, 3 side chain; linkers in the order of their positions; H or OH if unused. Positions of bridges follow the written chain, without caps; N, C: chain ends. Non-standard residues stand in square brackets, D forms with d. Residues, ends and D or L forms follow the SMILES beside them. *: point of attachment. Arg(Nω,Nω'-propylene) = N[C@@H](CCCNC1=NCCCN1)C(=O)O; dαMeDab = C[C@](CCN[*:3])(N[*:1])C(=O)[*:2]; dPhg = N[C@@H](C(=O)O)c1ccccc1; Pyridin(2-yl) = c1ccc(*)nc1; Isobutyryl = CC(C)C(=O)*; Orn = NCCC[C@H](N)C(=O)O; Abu = CC[C@H](N)C(=O)O
RECORDED METRIC: IC50 (nM)
Field: numeric (nM). Do not append units.

Prompt line: Entry CC[C@@H]1NC(=O)[C@H](CCCNC(=N)N)NC(=O)[C@](C)(NC(=O)C(C)C)CCNC(=O)[C@@H](c2cccc(OC)c2)NC1=O [Cpd. No. 94] : reported IC50 = ?
Response line: 4

Prompt line: Repeat for the following molecule: CC[C@@H]1NC(=O)[C@H](CCCNC(=N)N)NC(=O)[C@](C)(NC(=O)C(C)C)CCCCCCCCNC(=O)[C@@H](c2ccccc2)NC1=O [Cpd. No. 77]
Response line: 1.3

Prompt line: Repeat for the following molecule: CC[C@@H]1NC(=O)[C@H](CCCNC2=NCCCN2)NC(=O)[C@](C)(NC(=O)C(C)C)CCNC(=O)[C@@H](c2ccccc2)NC1=O [Cpd. No. 92] (Isobutyryl-[dαMeDab][Arg(Nω,Nω'-propylene)][Abu][dPhg]; lactam 1-C)
Response line: 1.86

Prompt line: Repeat for the following molecule: CC[C@@H]1NC(=O)[C@H](CCCNc2ccccn2)NC(=O)[C@](C)(NC(=O)C(C)C)CCNC(=O)[C@@H](c2ccccc2)NC1=O [Cpd. No. 12] (Isobutyryl-[dαMeDab][Orn](Pyridin(2-yl))[Abu][dPhg]; lactam 1-C)
Response line: 3.25

Prompt line: Repeat for the following molecule: CC(C)C(=O)N[C@]1(C)CCNC(=O)[C@@H](c2ccccc2)NC(=O)[C@H](C(C)C)NC(=O)[C@H](CCCNC(=N)N)NC1=O [Cpd. No. 89] (Isobutyryl-[dαMeDab]RV[dPhg]; lactam 1-C)
Response line: 1.83

###

# TARGET UNDER TEST: WDR5 (Homo sapiens, UniProt P61964)
# Construct: N-terminal His-tagged WDR5 protein (residues 24-334), named WDR5Δ23; made in house; host or cells: E. coli Rosetta 2 (DE3)
# TEST SUMMARY: fluorescence polarization (FP) based competitive binding assay to WDR5 protein
Starred links: 1 amine or outer side, 2 acyl side, 3 side chain; linkers in the order of their positions; H or OH if unused. Positions of bridges follow the written chain, without caps; N, C: chain ends. Non-standard residues stand in square brackets, D forms with d. Residues, ends and D or L forms follow the SMILES beside them. *: point of attachment. Orn(2-imidazolinyl) = N[C@@H](CCCNC1=NCCN1)C(=O)O; dαMeDab = C[C@](CCN[*:3])(N[*:1])C(=O)[*:2]; dPhg = N[C@@H](C(=O)O)c1ccccc1; Isobutyryl = CC(C)C(=O)*; Nva = CCC[C@H](N)C(=O)O; Abu = CC[C@H](N)C(=O)O
RECORDED METRIC: pIC50
# pIC50 = -log10(concentration in molar units)

Prompt line: Entry CC[C@@H]1NC(=O)[C@H](CCCNC2=NCCN2)NC(=O)[C@](C)(NC(=O)C(C)C)CCNC(=O)[C@@H](c2ccccc2)NC1=O [Cpd. No. 17] (Isobutyryl-[dαMeDab][Orn(2-imidazolinyl)][Abu][dPhg]; lactam 1-C) : reported pIC50 = ?
Response line: 8.62

Prompt line: Repeat for the following molecule: CCC[C@@H]1NC(=O)[C@H](CCCNC(=N)N)NC(=O)[C@](C)(NC(=O)C(C)C)CCNC(=O)[C@@H](c2ccccc2)NC1=O [Cpd. No. 88] (Isobutyryl-[dαMeDab]R[Nva][dPhg]; lactam 1-C)
Response line: 8.62

###

# TARGET UNDER TEST: WDR5 (Homo sapiens, UniProt P61964)
# Construct: N-terminal His-tagged WDR5 protein (residues 24-334), named WDR5Δ23; made in house; host or cells: E. coli Rosetta 2 (DE3)
# TEST SUMMARY: fluorescence polarization (FP) based competitive binding assay to WDR5 protein
# CONDITION: calculated from IC50 by published equation; read-out: Binding Affinity to WDR5 Ki ± SD
Starred links: 1 amine or outer side, 2 acyl side, 3 side chain; linkers in the order of their positions; H or OH if unused. Positions of bridges follow the written chain, without caps; N, C: chain ends. Non-standard residues stand in square brackets, D forms with d. Residues, ends and D or L forms follow the SMILES beside them. *: point of attachment. dαMeDab = C[C@](CCN[*:3])(N[*:1])C(=O)[*:2]; Arg(Me) = CNC(=N)NCCC[C@H](N)C(=O)O; d(αMeOrn) = C[C@@](N)(CCCN)C(=O)O; dPhg = N[C@@H](C(=O)O)c1ccccc1; Phg = N[C@H](C(=O)O)c1ccccc1; dOrn = NCCC[C@@H](N)C(=O)O; dDab = NCC[C@@H](N)C(=O)O; Isobutyryl = CC(C)C(=O)*; dDap = NC[C@@H](N)C(=O)O; Abu = CC[C@H](N)C(=O)O
Please respond with reported Ki for every item in the list.

Prompt line: Entry CC[C@@H]1NC(=O)[C@H](CCCNC(=N)N)NC(=O)[C@H](NC(=O)C(C)C)CNC(=O)[C@@H](c2ccccc2)NC1=O [Cpd. No. 71] (Isobutyryl-[dDap]R[Abu][dPhg]; lactam 1-C) : reported Ki = ?
Response line: 242 nM

Prompt line: Repeat for the following compound: CC[C@@H]1NC(=O)[C@H](CCCNC(=N)N)NC(=O)[C@H](NC(=O)C(C)C)CCNC(=O)[C@@H](c2ccccc2)NC1=O [Cpd. No. 1] (Isobutyryl-[dDab]R[Abu][dPhg]; lactam 1-C)
Response line: 0.8 nM

Prompt line: Repeat for the following compound: CC[C@@H]1NC(=O)[C@H](CCCNC(=N)N)NC(=O)[C@H](NC(=O)C(C)C)CCCNC(=O)[C@@H](c2ccccc2)NC1=O [Cpd. No. 72] (Isobutyryl-[dOrn]R[Abu][dPhg]; lactam 1-C)
Response line: 32.9 nM

Prompt line: Repeat for the following compound: CC[C@@H]1NC(=O)[C@H](CCCNC(=N)NC)NC(=O)[C@](C)(NC(=O)C(C)C)CCNC(=O)[C@H](c2ccccc2)NC1=O [Cpd. No. 62] (Isobutyryl-[dαMeDab][Arg(Me)][Abu][Phg]; lactam 1-C)
Response line: < 1 nM

Prompt line: Repeat for the following compound: CC[C@@H]1NC(=O)[C@H](CCCNC(=N)N)NC(=O)[C@](C)(NC(=O)C(C)C)CCNC(=O)[C@@H](c2ccccc2)NC1=O [Cpd. No. 4] (Isobutyryl-[dαMeDab]R[Abu][dPhg]; lactam 1-C)
Response line: < 1 nM

Prompt line: Repeat for the following compound: CC[C@@H]1NC(=O)[C@H](CCCNC(=N)NC)NC(=O)[C@](C)(NC(=O)C(C)C)CCNC(=O)[C@@H](c2ccccc2)NC1=O [Cpd. No. 5] (Isobutyryl-[dαMeDab][Arg(Me)][Abu][dPhg]; lactam 1-C)
Response line: < 1 nM

Prompt line: Repeat for the following compound: CC[C@@H]1NC(=O)[C@H](CCCNC(=N)N)NC(=O)[C@H](NC(=O)C(C)C)CCCCNC(=O)[C@@H](c2ccccc2)NC1=O [Cpd. No. 73] (Isobutyryl-[dK]R[Abu][dPhg]; lactam 1-C)
Response line: 60.3 nM

Prompt line: Repeat for the following compound: CC[C@@H]1NC(=O)[C@H](CCCNC(=N)N)NC(=O)[C@](C)(NC(=O)C(C)C)CCCNC(=O)[C@@H](c2ccccc2)NC1=O [Cpd. No. 74] (Isobutyryl-[d(αMeOrn)]R[Abu][dPhg]; lactam 1-C)
Response line: < 1 nM

Prompt line: Repeat for the following compound: CC[C@@H]1NC(=O)[C@H](CCCNC(=N)N)NC(=O)[C@](C)(NC(=O)C(C)C)CCCCCNC(=O)[C@@H](c2ccccc2)NC1=O [Cpd. No. 75]
Response line: < 1 nM

Hey, just so you know, these numbers are from patent US20210130401A1.
